Test system: human red blood cells (hRBC)
Assay: Hemolysis
Where a SMILES comes first, the peptide text is derived from it.
attribute-measured: Hemolysis at 100 μM % (%)
Kindly provide the numeric value in % only, without the unit symbol.

molecule	Hemolysis at 100 μM % [%]
CCCC[C@@H]1NC(=O)[C@@H]2CCCN2C(=O)[C@@H]2CCCN2C(=O)[C@H](CC(=O)O)NC(=O)[C@H](CO)NC(=O)[C@H](CCCCN)NC(=O)[C@H]([C@@H](C)O)NC(=O)[C@@H]2CSSC[C@H](NC1=O)C(=O)N[C@@H](CO)C(=O)N1CCC[C@@H]1C(=O)N1CCC[C@H]1C(=O)N[C@@H](Cc1ccccc1)C(=O)N2 [Ex. 53] (HELM PEPTIDE1{F.C.T.K.S.D.P.P.[Nle].C.S.[dP].P}$PEPTIDE1,PEPTIDE1,2:R3-10:R3|PEPTIDE1,PEPTIDE1,1:R1-13:R2$$$V2.0)	0

// next entry
Form field: Hemolysis at 100 μM % recorded for CCCC[C@@H]1NC(=O)[C@H]([C@@H](C)O)NC(=O)[C@@H]2CSSC[C@H](NC(=O)[C@H]([C@@H](C)CC)NC(=O)[C@@H]3CCCN3C(=O)[C@@H]3CCCN3C(=O)[C@H](CC(=O)O)NC(=O)[C@H](CO)NC1=O)C(=O)N[C@@H](CCCNC(=N)N)C(=O)N1CCC[C@@H]1C(=O)N1CCC[C@H]1C(=O)N[C@@H]([C@@H](C)CC)C(=O)N2 [Ex. 22] (HELM PEPTIDE1{I.C.T.[Nle].S.D.P.P.I.C.R.[dP].P}$PEPTIDE1,PEPTIDE1,2:R3-10:R3|PEPTIDE1,PEPTIDE1,1:R1-13:R2$$$V2.0) with human red blood cells (hRBC) (enter value)
0

----------
# maps each entry to its Chymase at 100 μM %
Target: Chymase, from human skin (Homo sapiens, UniProt P23946)
Sequence (P23946 22-247): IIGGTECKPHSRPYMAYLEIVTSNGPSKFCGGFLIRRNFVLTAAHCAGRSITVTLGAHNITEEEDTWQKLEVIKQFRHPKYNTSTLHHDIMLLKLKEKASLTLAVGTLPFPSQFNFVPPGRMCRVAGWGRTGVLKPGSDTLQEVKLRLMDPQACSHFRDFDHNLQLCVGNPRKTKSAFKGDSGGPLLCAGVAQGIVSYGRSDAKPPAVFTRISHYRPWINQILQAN
Test: Enzymatic assay, chymase
Where a SMILES comes first, the peptide text is derived from it.
Kindly provide the numeric value in % only, without the unit symbol.

Look over these answered cases.
compound	Chymase at 100 μM % (%)
CCCCCCCC[C@@H]1NC(=O)[C@@H]2CCCN2C(=O)[C@H]2CCCN2C(=O)[C@H](Cc2ccc(O)cc2)NC(=O)[C@H](CCCCN)NC(=O)[C@H](CCC(N)=O)NC(=O)[C@@H]2CCCN2C(=O)[C@@H]2CCCN2C(=O)[C@H]([C@@H](C)CC)NC(=O)[C@H](CO)NC(=O)[C@H](C)NC(=O)[C@H]([C@@H](C)O)NC(=O)[C@H](CCC(=O)O)NC1=O [Ex. 156] (HELM PEPTIDE1{[CCCCCCCC[C@H](N[*:1])C(=O)[*:2]].E.T.A.S.I.P.P.Q.K.Y.[dP].P}$PEPTIDE1,PEPTIDE1,1:R1-13:R2$$$V2.0)	0
CCCC[C@@H]1NC(=O)[C@@H]2CCCN2C(=O)[C@H]2CCCN2C(=O)[C@H](Cc2ccc(O)cc2)NC(=O)[C@H](CCCCN)NC(=O)[C@H](CCC(N)=O)NC(=O)[C@@H]2CCCN2C(=O)[C@@H]2CCCN2C(=O)[C@H]([C@@H](C)CC)NC(=O)[C@H](CO)NC(=O)[C@H](C)NC(=O)[C@H]([C@@H](C)O)NC(=O)[C@H](CCC(=O)O)NC1=O [Ex. 104] (HELM PEPTIDE1{[Nle].E.T.A.S.I.P.P.Q.K.Y.[dP].P}$PEPTIDE1,PEPTIDE1,1:R1-13:R2$$$V2.0)	0
C[C@@H]1NC(=O)[C@H]([C@@H](C)O)NC(=O)[C@@H]2CSSC[C@H](NC(=O)[C@H](CCC(N)=O)NC(=O)[C@@H]3CCCN3C(=O)[C@@H]3CCCN3C(=O)[C@H](CC3CCCCC3)NC(=O)[C@H](CO)NC1=O)C(=O)N[C@@H](Cc1ccccc1)C(=O)N1CCC[C@@H]1C(=O)N1CCC[C@H]1C(=O)N[C@@H](CCc1ccccc1)C(=O)N2 [Ex. 155] (HELM PEPTIDE1{[O=C([C@H](CCc1ccccc1)N[*:1])[*:2]].C.T.A.S.[Cha].P.P.Q.C.F.[dP].P}$PEPTIDE1,PEPTIDE1,2:R3-10:R3|PEPTIDE1,PEPTIDE1,1:R1-13:R2$$$V2.0)	3
CC[C@H](C)[C@@H]1NC(=O)[C@H](C)NC(=O)[C@@H]2CCCN2C(=O)[C@H](CC(=O)O)NC(=O)[C@H](CO)NC(=O)[C@H](CCCCN)NC(=O)[C@H]([C@@H](C)O)NC(=O)[C@@H]2CSSC[C@H](NC1=O)C(=O)N[C@@H](CCCNC(=N)N)C(=O)N1CCC[C@@H]1C(=O)N1CCC[C@H]1C(=O)N[C@@H]([C@@H](C)CC)C(=O)N2 [Ex. 52] (HELM PEPTIDE1{I.C.T.K.S.D.P.A.I.C.R.[dP].P}$PEPTIDE1,PEPTIDE1,2:R3-10:R3|PEPTIDE1,PEPTIDE1,1:R1-13:R2$$$V2.0)	42.3
CC[C@H](C)[C@@H]1NC(=O)[C@@H]2CCCN2C(=O)[C@@H]2CCCN2C(=O)[C@H](CC(=O)O)NC(=O)[C@H](CO)NC(=O)[C@H](CCCCN)NC(=O)[C@H]([C@@H](C)O)NC(=O)[C@@H]2CSSC[C@H](NC1=O)C(=O)N[C@@H](CC(N)=O)C(=O)N1CCC[C@@H]1C(=O)N1CCC[C@H]1C(=O)N[C@@H](Cc1ccccc1)C(=O)N2 [Ex. 3] (HELM PEPTIDE1{F.C.T.K.S.D.P.P.I.C.N.[dP].P}$PEPTIDE1,PEPTIDE1,2:R3-10:R3|PEPTIDE1,PEPTIDE1,1:R1-13:R2$$$V2.0)	1
CCCCCCCC[C@@H]1NC(=O)[C@@H]2CCCN2C(=O)[C@H]2CCCN2C(=O)[C@H](Cc2ccc(O)cc2)NC(=O)[C@H]([C@@H](C)O)NC(=O)[C@H](CCC(N)=O)NC(=O)[C@@H]2CCCN2C(=O)[C@@H]2CCCN2C(=O)[C@H]([C@@H](C)CC)NC(=O)[C@H](CO)NC(=O)[C@H](C)NC(=O)[C@H]([C@@H](C)O)NC(=O)[C@H](CCC(N)=O)NC1=O [Ex. 154] (HELM PEPTIDE1{[CCCCCCCC[C@H](N[*:1])C(=O)[*:2]].Q.T.A.S.I.P.P.Q.T.Y.[dP].P}$PEPTIDE1,PEPTIDE1,1:R1-13:R2$$$V2.0)	0

Could you tell me which Chymase at 100 μM % is on file for C[C@@H](O)[C@@H]1NC(=O)[C@@H]2CSSC[C@H](NC(=O)[C@H](CC3CCCCC3)NC(=O)[C@@H]3CCCN3C(=O)[C@@H]3CCCN3C(=O)[C@H](CC(=O)O)NC(=O)[C@H](CO)NC(=O)[C@H](CCCCN)NC1=O)C(=O)N[C@@H](CO)C(=O)N1CCC[C@@H]1C(=O)N1CCC[C@H]1C(=O)N[C@@H](Cc1ccccc1)C(=O)N2 [Ex. 16] (HELM PEPTIDE1{F.C.T.K.S.D.P.P.[Cha].C.S.[dP].P}$PEPTIDE1,PEPTIDE1,2:R3-10:R3|PEPTIDE1,PEPTIDE1,1:R1-13:R2$$$V2.0) ?
12.9

Could you tell me which Chymase at 100 μM % is on file for CCCC[C@@H]1NC(=O)[C@H](CCC(N)=O)NC(=O)[C@H]2CCCN2C(=O)[C@H](Cc2ccc(O)cc2)NC(=O)[C@@H]2CSSC[C@H](NC1=O)C(=O)N[C@@H]([C@@H](C)O)C(=O)N[C@@H](C)C(=O)N[C@@H](CO)C(=O)N[C@@H]([C@@H](C)CC)C(=O)N1CCC[C@H]1C(=O)N1CCC[C@H]1C(=O)N[C@@H](CCC(N)=O)C(=O)N2 [Ex. 123] (HELM PEPTIDE1{[Nle].C.T.A.S.I.P.P.Q.C.Y.[dP].Q}$PEPTIDE1,PEPTIDE1,2:R3-10:R3|PEPTIDE1,PEPTIDE1,1:R1-13:R2$$$V2.0) ?
0

----------
Target: Tryptase, from human lung
Test: Enzymatic assay, tryptase
Details: read-out: Tryptase IC50
Where a SMILES comes first, the peptide text is derived from it.
# maps each entry to its IC50
I'd appreciate it if you included the unit after the number.

Could you tell me which IC50 is on file for CC(C)C[C@@H]1NC(=O)[C@H](CO)NC(=O)[C@H](CCCCN)NC(=O)[C@H]([C@@H](C)O)NC(=O)[C@@H]2CSSC[C@H](NC(=O)[C@H](CCCCN)NC(=O)[C@@H]3CCCN3C(=O)[C@@H]3CCCN3C1=O)C(=O)N[C@@H](Cc1ccc(O)cc1)C(=O)N1CCC[C@@H]1C(=O)N1CCC[C@H]1C(=O)N[C@@H](CCCNC(=N)N)C(=O)N2 [Ex. 196] (HELM PEPTIDE1{R.C.T.K.S.L.P.P.K.C.Y.[dP].P}$PEPTIDE1,PEPTIDE1,2:R3-10:R3|PEPTIDE1,PEPTIDE1,1:R1-13:R2$$$V2.0) ?
52 nM

Could you tell me which IC50 is on file for CCCC[C@@H]1NC(=O)[C@@H]2CCCN2C(=O)[C@H]2CCCN2C(=O)[C@H](CCCNC(=N)N)NC(=O)[C@@H]2CSSC[C@H](NC1=O)C(=O)N[C@@H]([C@@H](C)O)C(=O)N[C@@H](CCCCN)C(=O)N[C@@H](CO)C(=O)N[C@@H](CC(C)C)C(=O)N1CCC[C@H]1C(=O)N1CCC[C@H]1C(=O)N[C@@H](CCCCN)C(=O)N2 [Ex. 192] (HELM PEPTIDE1{[Nle].C.T.K.S.L.P.P.K.C.R.[dP].P}$PEPTIDE1,PEPTIDE1,2:R3-10:R3|PEPTIDE1,PEPTIDE1,1:R1-13:R2$$$V2.0) ?
16 nM

Could you tell me which IC50 is on file for CC[C@H](C)[C@@H]1NC(=O)[C@@H]2CCCN2C(=O)[C@H]2CCCN2C(=O)[C@H](CCCNC(=N)N)NC(=O)[C@@H]2CSSC[C@H](NC1=O)C(=O)N[C@@H]([C@@H](C)O)C(=O)N[C@@H](CCCCN)C(=O)N[C@@H](CO)C(=O)N[C@@H](CC(C)C)C(=O)N1CCC[C@H]1C(=O)N1CCC[C@H]1C(=O)N[C@@H](CCCNC(=N)N)C(=O)N2 [Ex. 185] (HELM PEPTIDE1{I.C.T.K.S.L.P.P.R.C.R.[dP].P}$PEPTIDE1,PEPTIDE1,2:R3-10:R3|PEPTIDE1,PEPTIDE1,1:R1-13:R2$$$V2.0) ?
14 nM
